- Study target: B RT-2 (HIV-1 subtype B RT, HXB2) (HIV-1 M:B_HXB2R, UniProt P04585)
- Construct: gene gag-pol; p66/p51 heterodimer cut from the Pol (Gag-Pol) polyprotein; plasmid pRT6H-PROT with co-expressed HIV-1 protease; 6-His tag; E. coli M15; Ni-NTA, DEAE- and SP-Sepharose; with p51 RT of Gag-Pol polyprotein
- Run description: RNA-dependent DNA polymerase assay, [3H]-dTTP incorporation
- Type: biochemical
Readout kind: pIC50
One number for each entry, as −log10 of the molar value.

[in] Suppose we examine the molecule Cc1cn([C@H]2C[C@H](N=[N+]=[N-])[C@@H](CO[P@](=O)(O)O[P@](=O)(O)OP(=O)(O)O)O2)c(=O)[nH]c1=O ; what pIC50 value has been reported?
[out] 5.54

Reference for the values: paper PMC2959035
